- Tested on: Ishikawa cells
- assayMethodText: Induction of AlkP expression in Ishikawa cells
- Type: cell-based, human
# AlkP response lower than ERα-transcriptional response (relative AUC ratios) annotations

Below, 3 molecules whose answers are already recorded.
# molecule, assayResult
data = [
    ("COc1cc(-c2coc3c(C4OC(CO)C(O)C(O)C4O)c(O)cc(O)c3c2=O)ccc1O (stereo not shown)", "~ 30%"),
    ("COc1cc(-c2coc3cc(O)cc(OC)c3c2=O)ccc1O", "~ 30%"),
    ("O=c1c(-c2ccc(O)c(O)c2)coc2c(C3OC(CO)C(O)C(O)C3O)c(O)cc(O)c12 (stereo not shown)", "~ 30%"),
]

Exercise: Given the molecule COc1cc(O)cc2occ(-c3ccc(O)c(O)c3)c(=O)c12 , what is its reported AlkP response lower than ERα-transcriptional response (relative AUC ratios)?
Solution: ~ 30%

====

- Tested on: Ishikawa cells
- assayMethodText: Induction of AlkP expression in Ishikawa cells
- Assay type: cell-based, human
- details: Homo sapiens, Ishikawa, 72 h; read-out: Induction of AlkP expression (Ishikawa cells) Agonism at 1μΜ (% of 0.1nM E2)
A collection of molecules and their measured activation at 1 µM
Please report the result as a number followed by the unit.

// worked examples, activation at 1 µM included
# molecule, assayResult
rows = [
    ("O=c1c(-c2ccc(O)cc2)coc2cc(O)cc(O)c12", "110%"),
    ("C[C@]12CC[C@@H]3c4ccc(O)cc4CC[C@H]3[C@@H]1CC[C@@H]2O [Estradiol, 17β-estradiol, reference compound]", "100%"),
    ("COc1ccc(-c2coc3cc(O)cc(O)c3c2=O)cc1", "53%"),
]

Turning now to a further record.
Exercise: Can you look up the measured activation at 1 µM of COc1cc(-c2coc3c(C4OC(CO)C(O)C(O)C4O)c(O)cc(O)c3c2=O)ccc1O (stereo not shown) for me?
Solution: 15%

====

- System: HT22 cells
- assayMethodText: Glutamate toxicity (oxytosis) of HT22 neuronal cells (MTT)
- details: 1 nM estradiol or 1 μM compound; no glutamate
propertyLabel: viability of HT22 cells under normal growth conditions compared to vehicle-treated cells

# molecule, targetOfAssay, assayResult
rows = [
    ("O=c1c(-c2ccc(OC3O[C@H](CO)[C@@H](O)[C@H](O)[C@H]3O)cc2)coc2cc(OC3O[C@H](CO)[C@@H](O)[C@H](O)[C@H]3O)cc(O)c12 (stereo partly shown)", "HT22 cells", "not different"),
    ("C[C@]12CC[C@@H]3c4ccc(O)cc4CC[C@H]3[C@@H]1CC[C@@H]2O [Estradiol, 17β-estradiol, reference compound]", "HT22 cells", "not different"),
    ("O=c1c(-c2ccc(O)cc2)coc2cc(O[C@@H]3O[C@H](CO)[C@@H](O)[C@H](O)[C@H]3O)cc(O)c12", "HT22 cells", "not different"),
    ("O=c1c(-c2ccc(O)cc2)coc2cc(O)cc(O)c12", "HT22 cells", "not different"),
]

====

- targetOfAssay: ERβ (Homo sapiens, UniProt Q92731)
- Sequence (Q92731 whole entry): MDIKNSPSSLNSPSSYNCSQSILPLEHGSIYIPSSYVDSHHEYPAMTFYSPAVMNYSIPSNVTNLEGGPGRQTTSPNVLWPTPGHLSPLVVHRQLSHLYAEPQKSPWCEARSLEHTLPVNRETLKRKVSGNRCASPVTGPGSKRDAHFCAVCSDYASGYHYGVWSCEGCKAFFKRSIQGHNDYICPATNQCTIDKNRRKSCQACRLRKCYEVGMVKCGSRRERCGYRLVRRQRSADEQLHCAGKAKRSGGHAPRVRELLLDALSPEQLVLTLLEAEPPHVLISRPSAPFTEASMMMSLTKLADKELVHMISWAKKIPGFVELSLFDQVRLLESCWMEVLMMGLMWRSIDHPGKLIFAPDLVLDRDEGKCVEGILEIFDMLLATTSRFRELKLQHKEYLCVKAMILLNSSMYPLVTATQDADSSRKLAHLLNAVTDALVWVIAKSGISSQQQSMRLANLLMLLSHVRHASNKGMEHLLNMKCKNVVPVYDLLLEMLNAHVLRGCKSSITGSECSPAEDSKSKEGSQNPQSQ
- assayMethodText: ERE-dependent luciferase gene transcription in HEK:ERβ cells
- Format: cell-based
- Parameters: expressed in transfected cells; host or cells: HEK-293 (HEK:ERβ clone, with pERE-tk-Luciferase)
- details: compounds 1 μM; 18 h
- Procedure: Assessment of ER/ERE-dependent luciferase gene transcription in MCF-7:D5L (express ERα) and HEK:ERβ cells (express ERβ) and determination of ER transcriptional agonism was carried as already described. […] The AUC of the isoflavonoids of each group were then expressed as % of the AUC of the respective archetypal isoflavone. […]
propertyLabel: Induction of luciferase gene transcription, HEK:ERβ cells, Agonism at 1μΜ, class

# compound, assayResult
measured = [
    ("COc1cc(OC2OC(CO)C(O)C(O)C2O)cc2occ(-c3ccc(O)cc3)c(=O)c12 (stereo not shown)", "Marginal (⩽10%)"),
    ("COc1ccc(-c2coc3c(OC)c(O)ccc3c2=O)cc1", "Marginal (⩽10%)"),
    ("COc1cc(-c2coc3c(C4OC(CO)C(O)C(O)C4O)c(O)cc(O)c3c2=O)ccc1O (stereo not shown)", "Marginal (⩽10%)"),
    ("O=c1c(-c2ccc(O)c(O)c2)coc2c(C3OC(CO)C(O)C(O)C3O)c(O)cc(O)c12 (stereo not shown)", "Marginal (⩽10%)"),
]
